// provenance: PubChem BioAssay (NCI)

- Tested on: MOLT-4 leukemia
- testName: NCI-60 one-dose screen, 48 h (100 = growth as untreated, 0 = no growth, -100 = all killed)
- settings: 10 µM
This is part of a sample that, as a whole, favours compounds with a hit. Of some 83,000 tested, about 20% had one in any assay.
valueType: growth (%)

molecule: C1CNC(C2=NCCN2)=N1
measuredValue: 96.4
--
molecule: O=[N+]([O-])c1ccc(Cl)c(S(=O)(=O)O)c1
measuredValue: 89.7
--
molecule: CC1(C(N)=O)CCC(C(=O)O)C1(C)C (stereo not drawn)
measuredValue: 123
--
molecule: C/C=C/CC(C)C(O)C1C(=O)NC(CC)C(=O)N(C)CC(=O)N(C)C(CC(C)C)C(=O)NC(C(C)C)C(=O)N(C)C(CC(C)C)C(=O)NC(C)C(=O)NC(C)C(=O)N(C)C(CC(C)C)C(=O)N(C)C(CC(C)C)C(=O)N(C)C(C(C)C)C(=O)N1C (stereo not drawn)
measuredValue: -4.07
--
molecule: O=C(O)C(O)c1ccccc1 (stereo not drawn)
measuredValue: 102
--
molecule: CCn1c(=O)n(C)c2c(=O)n(C)c(=O)n(C)c21
measuredValue: 101
--
molecule: CCOC(=O)C(O)C(O)C(=O)OCC (stereo not drawn)
measuredValue: 104
--
molecule: N=c1c(C(=O)OCc2ccccc2)ncc(CCl)n1O
measuredValue: 97.8
--
molecule: C[C@]12CC[C@@H]3c4ccc(OCC(=O)O)cc4CC[C@H]3[C@@H]1CCC2=O
measuredValue: 86.2
--
molecule: CC12CC3CC1C(C(=O)O2)C3C(=O)O (stereo not drawn)
measuredValue: 100
--
molecule: O=[N+]([O-])c1ccc(/C=C/C=C/c2ccccc2)c(Cl)c1
measuredValue: 86.4
--
molecule: O=C(O)/C=C/C(=O)NCc1ccccc1
measuredValue: 101
--
molecule: Cc1cc(C)c(N)c(S(=O)(=O)O)c1
measuredValue: 113
